- study target: CD3ε homodimer protein (human, UniProt P07766 23-126, limits assumed)
- Sequence (P07766 23-126 limits assumed): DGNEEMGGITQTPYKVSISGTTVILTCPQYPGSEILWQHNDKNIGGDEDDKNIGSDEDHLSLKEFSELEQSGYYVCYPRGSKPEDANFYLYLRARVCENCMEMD
- assay name: SPR, immobilized CD3ε homodimer;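 also: biacore T200 surface plasmon resonance at 25 °C, antibody variants flowed as analytes over amine-coupled CD3ε homodimer on a CM4 chip, variant binding amount divided by that of GLS3000 antibody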
measurement name: ratio of amounts bound (vs GLS3000)
Reply briefly: the number, and no unit.

Solved entries:
binder: GLS3000 N53M (antibody, name in Kabat numbering, V domains shown, one-arm format as m2) VH: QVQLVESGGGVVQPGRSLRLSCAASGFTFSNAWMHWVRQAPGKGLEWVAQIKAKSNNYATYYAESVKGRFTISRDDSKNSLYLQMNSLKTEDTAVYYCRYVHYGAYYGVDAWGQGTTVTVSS VL: DIVMTQSPLSLPVTPGEPASISCRSSQSLVHSNRNTYLHWYQQKPGQAPRLLIYKVSMRFSGVPDRFSGSGSGTDFTLKISRVEAEDVGVYYCGQGTQVPYTFGQGTKLEIK
measurement name: ratio of amounts bound (vs GLS3000)
value reported: 0.62

binder: GLS3000 S56E (antibody, name in Kabat numbering, V domains shown, one-arm format as m2) VH: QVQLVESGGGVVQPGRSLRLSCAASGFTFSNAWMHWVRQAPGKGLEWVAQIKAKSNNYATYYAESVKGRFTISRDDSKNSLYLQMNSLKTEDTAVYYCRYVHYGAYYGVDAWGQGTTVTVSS VL: DIVMTQSPLSLPVTPGEPASISCRSSQSLVHSNRNTYLHWYQQKPGQAPRLLIYKVSNRFEGVPDRFSGSGSGTDFTLKISRVEAEDVGVYYCGQGTQVPYTFGQGTKLEIK
measurement name: ratio of amounts bound (vs GLS3000)
value reported: 0.71

binder: GLS3000 N28V (antibody, name in Kabat numbering, V domains shown, one-arm format as m2) VH: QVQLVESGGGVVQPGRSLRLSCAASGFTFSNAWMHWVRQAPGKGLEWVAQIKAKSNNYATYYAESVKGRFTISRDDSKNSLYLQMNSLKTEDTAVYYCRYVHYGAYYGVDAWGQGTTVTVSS VL: DIVMTQSPLSLPVTPGEPASISCRSSQSLVHSVRNTYLHWYQQKPGQAPRLLIYKVSNRFSGVPDRFSGSGSGTDFTLKISRVEAEDVGVYYCGQGTQVPYTFGQGTKLEIK
measurement name: ratio of amounts bound (vs GLS3000)
value reported: 0.36

binder: GLS3000 H34A (antibody, name in Kabat numbering, V domains shown, one-arm format as m2) VH: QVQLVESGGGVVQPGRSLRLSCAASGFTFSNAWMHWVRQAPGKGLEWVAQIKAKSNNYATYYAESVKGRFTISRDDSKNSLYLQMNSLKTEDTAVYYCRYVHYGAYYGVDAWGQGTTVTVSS VL: DIVMTQSPLSLPVTPGEPASISCRSSQSLVHSNRNTYLAWYQQKPGQAPRLLIYKVSNRFSGVPDRFSGSGSGTDFTLKISRVEAEDVGVYYCGQGTQVPYTFGQGTKLEIK
measurement name: ratio of amounts bound (vs GLS3000)
value reported: 1.06

binder: GLS3000 S27eE (antibody, name in Kabat numbering, V domains shown, one-arm format as m2) VH: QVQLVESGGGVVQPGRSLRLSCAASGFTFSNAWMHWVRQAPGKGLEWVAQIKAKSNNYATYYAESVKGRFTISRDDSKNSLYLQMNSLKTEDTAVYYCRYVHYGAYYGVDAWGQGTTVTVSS VL: DIVMTQSPLSLPVTPGEPASISCRSSQSLVHENRNTYLHWYQQKPGQAPRLLIYKVSNRFSGVPDRFSGSGSGTDFTLKISRVEAEDVGVYYCGQGTQVPYTFGQGTKLEIK
measurement name: ratio of amounts bound (vs GLS3000)
value reported: 0.76

Kindly review the next binder as well.
Qu. Given the binder GLS3000 T31I (antibody, name in Kabat numbering, V domains shown, one-arm format as m2) VH: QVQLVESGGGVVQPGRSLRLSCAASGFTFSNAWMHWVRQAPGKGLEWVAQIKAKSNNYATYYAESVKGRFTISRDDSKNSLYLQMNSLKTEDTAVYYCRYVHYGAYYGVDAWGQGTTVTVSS VL: DIVMTQSPLSLPVTPGEPASISCRSSQSLVHSNRNIYLHWYQQKPGQAPRLLIYKVSNRFSGVPDRFSGSGSGTDFTLKISRVEAEDVGVYYCGQGTQVPYTFGQGTKLEIK , write its reported ratio of amounts bound (vs GLS3000).
Ans. 0.97
